A collection of binders and their measured Fold increase in potency relative to 8E2
- experimental-system: T1, human IL-11Rα on transfected cells (human, UniProt Q14626 23-422)
- T1 sequence: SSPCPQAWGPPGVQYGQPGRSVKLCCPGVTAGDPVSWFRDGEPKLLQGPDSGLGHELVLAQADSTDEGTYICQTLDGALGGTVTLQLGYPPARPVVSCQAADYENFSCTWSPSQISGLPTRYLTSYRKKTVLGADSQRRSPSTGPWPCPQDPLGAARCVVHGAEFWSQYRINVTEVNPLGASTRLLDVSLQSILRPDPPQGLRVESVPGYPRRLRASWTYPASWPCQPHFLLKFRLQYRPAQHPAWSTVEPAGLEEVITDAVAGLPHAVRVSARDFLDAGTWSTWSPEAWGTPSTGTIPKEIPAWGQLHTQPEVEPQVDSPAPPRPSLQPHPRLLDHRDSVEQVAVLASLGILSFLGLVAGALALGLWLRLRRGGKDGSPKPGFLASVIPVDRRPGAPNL
- assay-details: cell-based or functional assay
Reply numerically in fold, unit not repeated.

{"binder": "hu8E2-TS-51 (antibody, V domains shown) VH: EVQLLESGGGLVQPGGSLRLSCAASGFTFSWYSMTWVRQAPGKGLEWVSSIVPSGGHTQYADSVKGRFTISRDNSKNTLYLQMNSLRAEDTAVYYCAKGPGWGSFDLWGRGTLVTVSS VL: DIQMTQSPSSLSASVGDRVTITCQASQDINNYLNWYQQKPGKAPKLLIYDASNLQTGVPSRFSGSGSGTDFTFTISSLQPEDIATYYCQQYESQWPFFGPGTKVDIK", "reading-unit": "fold", "numeric-value": 3.6}

Which measured Fold increase in potency relative to 8E2 value corresponds to hu8E2-TS-313 (antibody, V domains shown) VH: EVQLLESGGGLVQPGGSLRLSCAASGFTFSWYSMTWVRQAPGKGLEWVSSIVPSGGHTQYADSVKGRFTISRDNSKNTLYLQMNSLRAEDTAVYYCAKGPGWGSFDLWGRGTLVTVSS VL: DIQMTQSPSSLSASVGDRVTITCQASQDVSGYVEWYQQKPGKAPKLLIYDASNLQTGVPSRFSGSGSGTDFTFTISSLQPEDIATYYCQQYDNLSPTFGPGTKVDIK ?
0.7

Then hu8E2-TS-32 (antibody, V domains shown) VH: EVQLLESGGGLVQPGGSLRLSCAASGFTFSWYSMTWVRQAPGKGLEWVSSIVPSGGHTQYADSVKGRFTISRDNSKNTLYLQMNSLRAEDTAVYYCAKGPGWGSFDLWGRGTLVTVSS VL: DIQMTQSPSSLSASVGDRVTITCQASQDINNYLNWYQQKPGKAPKLLIYDASNLQTGVPSRFSGSGSGTDFTFTISSLQPEDIATYYCTQWETQSPTFGPGTKVDIK ?
2.4
